- Test system: NCI-H322M
- protocol: relative viability (nuclei count vs DMSO), 5 days (fraction); higher = more cells survive
- applied.conditions: first compound 0.01 µM

compound: CC(C)Oc1cc(Nc2nc(N[C@@H](C)c3ccc(F)cn3)ncc2Cl)n[nH]1 [AZ23] + CC(=O)Nc1cccc(-n2c(=O)n(C3CC3)c(=O)c3c(Nc4ccc(I)cc4F)n(C)c(=O)c(C)c32)c1 [Trametinib] (partner 0.02 µM)
relative viability: 0.454
--
compound: CC(C)Oc1cc(Nc2nc(N[C@@H](C)c3ccc(F)cn3)ncc2Cl)n[nH]1 [AZ23] + CS(=O)(=O)CCNCc1ccc(-c2ccc3ncnc(Nc4ccc(OCc5cccc(F)c5)c(Cl)c4)c3c2)o1 [Lapatinib] (partner 2 µM)
relative viability: 0.575
--
compound: CC(C)Oc1cc(Nc2nc(N[C@@H](C)c3ccc(F)cn3)ncc2Cl)n[nH]1 [AZ23] + CC(C)C[C@H](NC(=O)[C@H](Cc1ccccc1)NC(=O)c1cnccn1)B(O)O [Bortezomib] (partner 0.002 µM)
relative viability: 1.2
--
compound: CC(C)Oc1cc(Nc2nc(N[C@@H](C)c3ccc(F)cn3)ncc2Cl)n[nH]1 [AZ23] + CC(=O)c1c(C)c2cnc(Nc3ccc(N4CCNCC4)cn3)nc2n(C2CCCC2)c1=O [Palbociclib] (partner 0.5 µM)
relative viability: 0.446

Data credit: the supplement of paper PMC10307832
